# Test system: L1210 leukemia ip in BDF1 mice, survival T/C
# assay-info: NCI In Vivo Anticancer Drug Screen. Data for tumor model L1210 Leukemia (intraperitoneal) in B6D2F1 (BDF1) mice
# measurement-conditions: endpoint: mean survival time; dose: 50.0 mg/kg/injection; schedule: Q01DX009 (ip); vehicle: saline; higher = longer survival
Inconclusive results and toxic doses are left out.
assay-endpoint: T/C

Completed entries (count: 3):
N#CCN1CCOCC1 | 101 % of control
O=C(NC(=S)c1ccc[nH]1)Nc1ccccc1 | 93 % of control
Cc1cc(=O)c2cc(Cc3ccc4[nH]c(C)cc(=O)c4c3)ccc2[nH]1 | 91 % of control

For L1210 leukemia ip in BDF1 mice, survival T/C, give the measured T/C of the entry CN(C)C1=NC(=O)C(c2ccccc2)O1 (stereo not given)
111 % of control

For L1210 leukemia ip in BDF1 mice, survival T/C, give the measured T/C of the entry O=C1C2C(C(=O)N1c1ccc([N+](=O)[O-])cc1)C1c3ccccc3C2C2CCCCN21 (stereo not given)
95 % of control

###

# Test system: L1210 leukemia ip in BDF1 mice, survival T/C
# assay-info: NCI In Vivo Anticancer Drug Screen. Data for tumor model L1210 Leukemia (intraperitoneal) in B6D2F1 (BDF1) mice
# measurement-conditions: endpoint: mean survival time; dose: 100.0 mg/kg/injection; schedule: Q01DX001 (ip); vehicle: saline; higher = longer survival
Toxic doses and inconclusive results are not listed.
assay-endpoint: T/C

Completed entries (count: 5):
CCSC(=N)N=Nc1ccc(O)cc1 | 98 % of control
COc1ccccc1NC(=O)C(C(C)=O)C(c1cccc([N+](=O)[O-])c1)C(C(C)=O)C(=O)Nc1ccccc1OC (stereo unspecified) | 96 % of control
C[n+]1cccc2c(C(=O)O)cccc21 | 97 % of control
COc1ccc(OC(=O)N2C=Cc3ccccc3C2C#N)cc1 (stereo unspecified) | 93 % of control
CCCCCCOC(=O)Nc1ccc(S(=O)(=O)NC2CCCCC2)cc1 | 94 % of control

Turning now to a further molecule:
Please report T/C for the following molecule: CN(C)c1ccc(C(=C2C=CC(=[N+](C)C)C=C2)c2ccccc2Cl)cc1
92 % of control

###

# System: L1210 leukemia ip in BDF1 mice, survival T/C
# assay-info: NCI In Vivo Anticancer Drug Screen. Data for tumor model L1210 Leukemia (intraperitoneal) in B6D2F1 (BDF1) mice
# measurement-conditions: endpoint: mean survival time; dose: 200.0 mg/kg/injection; schedule: Q01DX009 (ip); vehicle: saline; higher = longer survival
Inconclusive results and toxic doses are left out.
Each entry below lists one item and its recorded T/C value.

Completed entries (count: 3):
CCCNC(=O)/C=C\C(=O)O | 90 % of control
CCN(CC)CCOC(=O)c1cccnc1 | 86 % of control
CCN(CC)CCOC(=O)c1ccc(Cl)cc1 | 96 % of control

Turning now to a further compound:
Please report T/C for the following compound: NC(=O)CC[n+]1cccc(C(=O)O)c1
88 % of control

###

# Test system: L1210 leukemia ip in BDF1 mice, survival T/C
# assay-info: NCI In Vivo Anticancer Drug Screen. Data for tumor model L1210 Leukemia (intraperitoneal) in B6D2F1 (BDF1) mice
# measurement-conditions: endpoint: mean survival time; dose: 100.0 mg/kg/injection; schedule: Q04DX003 (ip); vehicle: acetone; higher = longer survival
Inconclusive results and toxic doses are left out.
assay-endpoint: T/C

CCCCCCCCCCCCCCCCCC(O)CCCCCCCCCCCCCCCCC | 94 % of control
O=CNc1c(Cl)c(Cl)c2c(c1Cl)Cc1cc(Cl)ccc1-2 | 105 % of control
c1ccc2cc(-c3cc4ccccc4s3)ccc2c1 | 100 % of control
O=[N+]([O-])c1cc(Cl)c(O)c(Cl)c1Cl | 92 % of control

Turning now to a further compound:
Please report T/C for the following compound: CC(S)CNCCSC(=O)c1ccccc1 (stereo not given)
91 % of control

###

# System: L1210 leukemia ip in BDF1 mice, survival T/C
# assay-info: NCI In Vivo Anticancer Drug Screen. Data for tumor model L1210 Leukemia (intraperitoneal) in B6D2F1 (BDF1) mice
# measurement-conditions: endpoint: mean survival time; dose: 100.0 mg/kg/injection; schedule: Q04DX002 (ip); vehicle: Klucel (hydroxypropylcellulose) (HPC); higher = longer survival
Toxic doses and inconclusive results are not listed.
Each entry below lists one item and its recorded T/C value.

OC1=NN(Cc2ccccc2)NO1 | 104 % of control

Please report T/C for the following compound: CCOC(=O)c1ccc(NC(=O)CCCCCCCCC(=O)Nc2ccc(C(=O)OCC)cc2)cc1
91 % of control

###

# Tested on: L1210 leukemia ip in BDF1 mice, survival T/C
# assay-info: NCI In Vivo Anticancer Drug Screen. Data for tumor model L1210 Leukemia (intraperitoneal) in B6D2F1 (BDF1) mice
# measurement-conditions: endpoint: mean survival time; dose: 100.0 mg/kg/injection; schedule: Q04DX003 (ip); vehicle: saline with Tween-80; higher = longer survival
Toxic doses and inconclusive results are not listed.
Each entry below lists one item and its recorded T/C value.

COc1ccc(Cl)cc1NC(=O)Oc1ccccc1C(N)=O | 104 % of control
CCc1ccc(NC(C)=O)cc1 | 105 % of control
O=C(Nc1ccccc1[N+](=O)[O-])OCc1ccc([N+](=O)[O-])cc1 | 92 % of control

For L1210 leukemia ip in BDF1 mice, survival T/C, give the measured T/C of the entry CCC(=O)c1ccc(OCC(O)CN2CCN(c3ccccc3OC)CC2)cc1 (stereo not given)
96 % of control

For L1210 leukemia ip in BDF1 mice, survival T/C, give the measured T/C of the entry CCOC(=O)C(=O)Nc1ccc([N+](=O)[O-])cc1
87 % of control

For L1210 leukemia ip in BDF1 mice, survival T/C, give the measured T/C of the entry CCCCCCCCCCCCNc1ccccn1
88 % of control

For L1210 leukemia ip in BDF1 mice, survival T/C, give the measured T/C of the entry S=C(NCc1ccccc1)Nc1ccccc1
96 % of control

For L1210 leukemia ip in BDF1 mice, survival T/C, give the measured T/C of the entry O=C1CSc2ccccc2N1
103 % of control

For L1210 leukemia ip in BDF1 mice, survival T/C, give the measured T/C of the entry Cn1nnc(N/N=C/c2ccccc2)n1
88 % of control

For L1210 leukemia ip in BDF1 mice, survival T/C, give the measured T/C of the entry COC(=O)C(CSCSC)NC(=O)/C=C\c1ccccc1 (stereo not given)
97 % of control

###

Each entry below lists one item and its recorded T/C value.
# Tested on: L1210 leukemia ip in BDF1 mice, survival T/C
# assay-info: NCI In Vivo Anticancer Drug Screen. Data for tumor model L1210 Leukemia (intraperitoneal) in B6D2F1 (BDF1) mice
# measurement-conditions: endpoint: mean survival time; dose: 50.0 mg/kg/injection; schedule: Q01DX009 (ip); vehicle: Klucel (hydroxypropylcellulose) (HPC); higher = longer survival
Inconclusive results and toxic doses are left out.

Completed entries (count: 5):
O=C1NC(=O)C(c2ccccc2)(C2CCCC2)N1 (stereo not drawn) | 93 % of control
Nc1nn(-c2ccccc2)c(N)c1N=Nc1ccccc1 | 98 % of control
COc1ccc2c(ccc3c2ncc2c(=O)[nH][nH]c23)c1 | 92 % of control
O=C1CSCC(=O)O1 | 97 % of control
O=C(O)c1ccc2c(c1)NC(c1cccc3ccccc13)NC2=O (stereo not drawn) | 93 % of control

Please report T/C for the following compound: O=C(NN(c1ccc([N+](=O)[O-])cc1)c1ccc([N+](=O)[O-])cc1)c1ccccc1
103 % of control

Please report T/C for the following compound: CCOC(=O)c1cnc(=S)[nH]c1N
102 % of control

Please report T/C for the following compound: CCCCOC(=O)c1ccc(OC(=O)Nc2ccc([N+](=O)[O-])cc2OC)cc1
96 % of control

Please report T/C for the following compound: O=C(c1ccccc1)C(Cl)c1ccccc1 (stereo not drawn)
111 % of control

Please report T/C for the following compound: CC(=O)CSc1nc2ccccc2s1
95 % of control

Please report T/C for the following compound: CC(Cc1ccccc1)NC(=O)CCNNC(=O)c1ccncc1 (stereo not drawn)
103 % of control

Please report T/C for the following compound: O=C(Nc1ccc(C(=O)O)cc1)Nc1cccc(F)c1
102 % of control

Please report T/C for the following compound: O=Cc1ccc(N2CCOCC2)cc1
97 % of control

###

# Tested on: L1210 leukemia ip in BDF1 mice, survival T/C
# assay-info: NCI In Vivo Anticancer Drug Screen. Data for tumor model L1210 Leukemia (intraperitoneal) in B6D2F1 (BDF1) mice
# measurement-conditions: endpoint: mean survival time; dose: 400.0 mg/kg/injection; schedule: Q04DX002 (ip); vehicle: Klucel (hydroxypropylcellulose) (HPC); higher = longer survival
Toxic doses and inconclusive results are not listed.
Each entry below lists one item and its recorded T/C value.

COc1ccccc1NC(=O)c1ccco1 | 103 % of control
CCCCCOC(=O)COc1ccc(Cl)cc1 | 103 % of control

For L1210 leukemia ip in BDF1 mice, survival T/C, give the measured T/C of the entry Cc1ccc(NC(=O)COc2ccccc2)c(C)c1
100 % of control

For L1210 leukemia ip in BDF1 mice, survival T/C, give the measured T/C of the entry Cn1ncc(C#N)c1N
100 % of control

For L1210 leukemia ip in BDF1 mice, survival T/C, give the measured T/C of the entry O=C(O)c1c2c(nc3ccccc13)CCC(C(=O)O)C2 (configuration not stated)
103 % of control

For L1210 leukemia ip in BDF1 mice, survival T/C, give the measured T/C of the entry Cc1cc(O)ccc1C1=NCC(C)S1 (configuration not stated)
107 % of control

For L1210 leukemia ip in BDF1 mice, survival T/C, give the measured T/C of the entry CC(=O)OCC(C)CCC(=O)C(C)C1C(=O)CC2CC3CC(OC(C)=O)CCC3(C)CC21C (configuration not stated)
96 % of control
